Kindly state pKd for each of the entries shown.
- target_or_system: T1, huMICA*008 alpha 3-his (human)
- T1 construct: whole construct entry: GS, alpha 3 domain (Thr204-Ser297), GNS, His8; also the construct of the FPOP experiment; also called MICA008.His; MICA*008 alpha3 construct
- T1 chain: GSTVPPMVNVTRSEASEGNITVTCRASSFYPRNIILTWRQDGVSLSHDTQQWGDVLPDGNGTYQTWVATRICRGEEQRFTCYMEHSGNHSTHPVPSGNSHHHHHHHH
- assay_details: SPR, Biacore 8K, antibody on Protein A chip
Numbers only, as −log10 of the molar value.

Example cases with answers are listed next.
15F11v3 (antibody, IgG1, V domains shown, humanized variant of 15F11) VH: EVQLVQSGAEVKKPGASVKVSCKASGYAFTSNNIYWVRQAPGQGLEWIGYIDPYIGRIIYNQQFKDRVTITADTSTSTAYLELSSLRSEDTAVYYCSRSGERSNFDYWGQGTLVTVSS VL: EIVLTQSPATLSLSPGERATLSCSASSSISSNYLHWYQQKPGQSPRLLIYRTSNLASGVPARFSGSGSGTDYTLTISSLEPEDFAVYYCQQGGSLPLTFGQGTKVEIK; 8.25
1D5v28 (antibody, IgG1, V domains shown, humanized variant of 1D5) VH: EIQLVQSGAEVKKPGASVKVSCKASGYAFTSQNIYWVRQAPGQGLEWIGYIEPYNVVPLYNPKFKGRATLTVDKSTSTAYLELSSLRSEDTAVYYCARSGSSNFDYWGQGTLVTVSS VL: DIQLTQSPSSLSASVGDRVTITCSASSSISSHYLHWYQQKPGKSPKLLIYRTSNLASGVPSRFSGSGSGTDYTLTISSLQPEDFATYYCQQGSSLPLTFGQGTKVEIK; 9.08

Ask | Return the recorded pKd value; entry: 1D5v15 (antibody, IgG1, V domains shown, humanized variant of 1D5) VH: EIQLVQSGAEVKKPGASVKVSCKASGYAFTSQNIYWVRQAPGQGLEWIGYIEPYNVVPMYNPKFKGRATLTVDKSTSTAYLELSSLRSEDTAVYYCARSGSSNFDYWGQGTLVTVSS VL: DIQMTQSPSSLSASVGDRVTITCSASSSISSHYLHWYQQKPGKAPKLLIYRTSNLASGVPSRFSGSGSGTDFTLTISSLQPEDFATYYCQQGSSLPLTFGQGTKVEIK
Reply | 9.12
